The measurements presented in this section are drawn from ChEMBL document CHEMBL3091335.

- test system: P2X purinoceptor 7 (Homo sapiens) (UniProt Q99572)
- Sequence (Q99572 whole entry): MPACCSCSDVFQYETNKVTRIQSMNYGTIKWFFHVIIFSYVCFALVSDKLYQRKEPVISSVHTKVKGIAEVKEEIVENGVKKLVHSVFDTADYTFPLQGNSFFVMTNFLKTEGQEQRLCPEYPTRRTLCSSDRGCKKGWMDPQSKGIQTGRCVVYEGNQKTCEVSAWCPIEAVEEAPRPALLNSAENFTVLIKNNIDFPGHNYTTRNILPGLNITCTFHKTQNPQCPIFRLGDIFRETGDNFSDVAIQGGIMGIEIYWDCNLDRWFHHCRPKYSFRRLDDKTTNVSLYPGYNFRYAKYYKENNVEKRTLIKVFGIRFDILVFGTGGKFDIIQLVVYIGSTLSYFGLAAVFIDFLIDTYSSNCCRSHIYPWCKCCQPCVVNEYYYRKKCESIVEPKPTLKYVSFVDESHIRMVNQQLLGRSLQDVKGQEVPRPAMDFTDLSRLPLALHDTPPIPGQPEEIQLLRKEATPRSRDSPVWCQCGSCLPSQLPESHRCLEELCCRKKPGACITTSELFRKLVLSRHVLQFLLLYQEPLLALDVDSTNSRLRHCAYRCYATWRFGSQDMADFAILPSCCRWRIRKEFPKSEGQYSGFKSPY
- assay name: Antagonist activity at human P2X7 receptor expressed in HEK293 cells assessed as inhibition of BzATP-induced accumulation of ethidium+ at 10 uM after 120 mins by fluorescence assay relative to control
- Assay type: cell-based
Calls of active or inactive are those of the source. The rule behind the calls is not given here.

molecule | inhibition
Cc1nc(CCc2ccccc2)c(C(=O)O)c(C(=O)O)c1O | inactive
Cc1nc(NC(=O)c2ccccc2)c(C(=O)O)c(C(=O)O)c1O | inactive
Cc1nc(Cc2cccc(Oc3ccccc3)c2)c(C(=O)O)c(C(=O)O)c1O | inactive
Cc1nc(COCc2ccccc2)c(C(=O)O)c(C(=O)O)c1O | inactive
Cc1nc(-c2cccc(Oc3ccccc3)c2)c(C(=O)O)c(C(=O)O)c1O | inactive
Cc1nc(Cc2ccccc2Oc2ccccc2)c(C(=O)O)c(C(=O)O)c1O | inactive
Cc1nc(CC(c2ccccc2)c2ccccc2)c(C(=O)O)c(C(=O)O)c1O | inactive
Cc1cc(C(=O)O)c(C(=O)O)c(NC(=O)c2ccccc2)n1 | inactive
Cc1nc(Cc2cccc3ccccc23)c(C(=O)O)c(C(=O)O)c1O | inactive
COc1cccc(CCc2nc(C)c(O)c(C(=O)O)c2C(=O)O)c1 | inactive
Cc1nc(Cc2cccc(Oc3ccccc3)c2)c2c(c1O)C(O)OC2=O (configuration not stated) | 27.1%
Cc1nc(Cc2cccc(Oc3ccccc3)c2)c(/C=C/C(=O)O)c(C=O)c1O | 15.1%
Cc1nc(Cc2cccc(Oc3ccccc3)c2)c(/C=C/C(=O)O)c(C(=O)O)c1O | inactive
Cc1nc(CCc2ccc(C(=O)O)cc2)c(C(=O)O)c(C(=O)O)c1O | inactive
CC(=O)c1c(O)c(C)nc(/C=C/c2ccccc2)c1C(=O)O | inactive
Cc1nc(/C=C/c2ccccc2)c(C(=O)O)c(C(=O)O)c1O | inactive
CC(=O)c1c(O)c(C)nc(CCc2ccccc2)c1C(=O)O | inactive
Cc1nc(Cc2cccc3ccccc23)c2c(c1O)C(O)OC2=O (configuration not stated) | 14.8%
Cc1nc(Cc2ccccc2)c(C(=O)O)c(C(=O)O)c1O | inactive
Cc1nc(Cc2cccc3ccccc23)c(/C=C/C(=O)O)c(C=O)c1O | 48.4%
COc1ccc(CCc2nc(C)c(O)c(C(C)=O)c2C(=O)O)cc1 | inactive
COc1ccccc1CCc1nc(C)c(O)c(C(=O)O)c1C(=O)O | inactive
CC(=O)c1c(O)c(C)nc(Cc2ccccc2)c1C(=O)O | inactive
COc1ccccc1CCc1nc(C)c(O)c(C(C)=O)c1C(=O)O | inactive
COc1cccc(CCc2nc(C)c(O)c(C(C)=O)c2C(=O)O)c1 | inactive
Cc1nc(NC(=O)c2cccc(Oc3ccccc3)c2)c(C(=O)O)c(C(=O)O)c1O | inactive
Cc1nc(Cc2ccc(Oc3ccccc3)cc2)c(C(=O)O)c(C(=O)O)c1O | inactive
Cc1nc(Cc2cccc3ccccc23)c(CCC(=O)O)c(C=O)c1O | 43.4%
Cc1nc(CCc2cccc(Oc3ccccc3)c2)c(C(=O)O)c(C(=O)O)c1O | inactive
COc1ccc(CCc2nc(C)c(O)c(C(=O)O)c2C(=O)O)cc1 | inactive
Cc1nc(Cc2cccc(Oc3ccccc3)c2)c(CCC(=O)O)c(C=O)c1O | 10.2%
Cc1nc(Cc2cccc(Oc3ccccc3)c2)c(CCC(=O)O)c(C(=O)O)c1O | inactive
